The values you see were collected from patent US20100196390A1.

biological target: TrkB (Homo sapiens (Human), UniProt Q16620 32-430); test: koff of Fab at 25 C; T1/2=Log2/koff
Sequence (Q16620 32-430 limits assumed): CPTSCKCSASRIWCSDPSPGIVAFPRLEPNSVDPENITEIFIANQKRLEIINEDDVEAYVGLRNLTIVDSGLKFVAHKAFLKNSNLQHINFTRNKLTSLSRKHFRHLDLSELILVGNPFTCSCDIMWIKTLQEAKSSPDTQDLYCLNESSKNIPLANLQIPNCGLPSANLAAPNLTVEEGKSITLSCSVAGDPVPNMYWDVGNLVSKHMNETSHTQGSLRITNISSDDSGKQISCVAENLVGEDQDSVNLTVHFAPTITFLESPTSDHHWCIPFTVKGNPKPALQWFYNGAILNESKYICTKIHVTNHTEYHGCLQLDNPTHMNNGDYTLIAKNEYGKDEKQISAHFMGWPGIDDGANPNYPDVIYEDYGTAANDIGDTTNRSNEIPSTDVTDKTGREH
In this section we review reported T1/2 values for a set of binders.
PROPERTY_MEASURED: T1/2 (min)

[[record]]
binder = "10-A5 (Fab, V domains shown, Fab) VH: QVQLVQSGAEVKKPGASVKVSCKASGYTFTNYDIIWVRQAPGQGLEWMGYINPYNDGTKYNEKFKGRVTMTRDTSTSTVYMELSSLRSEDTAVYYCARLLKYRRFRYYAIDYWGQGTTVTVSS VL: DIQMTQSPSSLSASVGDRVTITCRASETVYSNLAWYQQKPGKAPKLLIYAASNLQSGVPSRFSGSGSGTDFTFTISSLQPEDIATYYCQHFWGSPFTFGQGTKLEIK"
property_measured = "T1/2"
measurement = 1

[[record]]
binder = "7-C11 (Fab, V domains shown, Fab) VH: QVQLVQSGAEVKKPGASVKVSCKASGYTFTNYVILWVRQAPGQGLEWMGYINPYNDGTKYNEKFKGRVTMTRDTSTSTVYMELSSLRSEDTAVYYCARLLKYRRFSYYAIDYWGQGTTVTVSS VL: DIQMTQSPSSLSASVGDRVTITCRASENVYSNLAWYQQKPGKAPKLLIYAASNLQSGVPSRFSGSGSGTDFTFTISSLQPEDIATYYCQHFKYSPFTFGQGTKLEIK"
property_measured = "T1/2"
measurement = 1.07

